Each recorded value in this set is attributed to ChEMBL document CHEMBL1201862.

Give measured GI50 for each item. Keep answers brief.
Answer format: numeric, µM implied, no suffix.

Answer briefly: GI50 recorded on HCT-15 for N#Cc1c(N)nc(SCc2ccccc2)c(C#N)c1-c1ccc(O)cc1
11.2

Answer briefly: GI50 recorded on HCT-15 for Cc1cccc(C(C)(C)C)c1NC(=O)CC1C(=O)Nc2ccccc2[S+]1[O-] (configuration not stated)
49.2

Answer briefly: GI50 recorded on HCT-15 for C=CC(Cl)(CBr)CCC(Br)=C(C)C (configuration not stated)
10.4

Answer briefly: GI50 recorded on HCT-15 for COC(=O)C1Cc2c(n(C)c3ccccc23)C(CCC(=O)O)N1Cc1ccccc1 (configuration not stated)
27.7

Answer briefly: GI50 recorded on HCT-15 for O=C1C=C2CC[C@H]3[C@@H]4CC[C@H](Oc5c6ccccc6nc6ccccc56)[C@H]4CC[C@@H]3[C@H]2CC1
24.7

Answer briefly: GI50 recorded on HCT-15 for COc1ccc(-c2nc(SCC(=O)N/N=C/c3ccc([N+](=O)[O-])cc3)[nH]c2-c2ccc(OC)cc2)cc1
8.55

Answer briefly: GI50 recorded on HCT-15 for CN1C(=O)c2ccccc2OC12C=Cc1ccc(O)cc1O2 (configuration not stated)
29.6

Answer briefly: GI50 recorded on HCT-15 for Cc1c(C(=O)/C=C/C=C/c2ccccc2)[n+]([O-])c2ccccc2[n+]1[O-]
15.2

Answer briefly: GI50 recorded on HCT-15 for COC(=O)[C@@]1(C(C)CC(=O)O)CCCCC1=O (some centres not stated)
42.6

Answer briefly: GI50 recorded on HCT-15 for CCOC(=O)N1CCC(N[C@@H]2c3cc4c(cc3[C@@H](c3cc(OC)c(O)c(OC)c3)[C@H]3C(=O)OC[C@@H]32)OCO4)CC1
0.796
